Where do these numbers come from? They come from paper PMC11676667.

- measurementProtocol: Plasma pharmacokinetics after single oral dose of Δ8-THCV in MCT oil (LC-MS/MS, non-compartmental analysis)
- Assay type: in vivo, human
- settings: human, plasma, po, 50 mg, 50 mg single oral Δ8-THCV in MCT oil; Mean (±SD)

[
  {
    "molecule": "CCCc1cc(O)c2c(c1)OC(C)(C)[C@@H]1CCC(C(=O)O)=C[C@@H]21",
    "AUC(0-t)": "33.4 ng·h/mL"
  },
  {
    "molecule": "CCCc1cc(O)c2c(c1)OC(C)(C)[C@@H]1CC=C(C(=O)O)C[C@@H]21",
    "AUC(0-t)": "1210 ng·h/mL"
  },
  {
    "molecule": "CCCc1cc(O)c2c(c1)OC(C)(C)[C@@H]1CC=C(C)C[C@@H]21 [Δ8-THCV, Δ8-tetrahydrocannabivarin]",
    "AUC(0-t)": "27.3 ng·h/mL"
  },
  {
    "molecule": "CCCc1cc(O)c2c(c1)OC(C)(C)[C@@H]1CC=C(CO)C[C@@H]21 (racemic) [11-OH-Δ8-THCV, (±)-11-hydroxy-Δ8-THCV]",
    "AUC(0-t)": "6.2 ng·h/mL"
  }
]
